# Tested on: RPMI-8226
# protocolDescription: NCI tumour cell line growth inhibition, 48 h
Active and inactive are the calls of the source. Cut-off read from the data, not from the text of the source: active = GI50 up to about 1.1 µM and inactive = higher.
The categories you may choose from are active, inactive

Worked cases, answers included:
[ask] Per the assay record, what outcome was assigned to "CC1(C)CC(=O)C2=C(C1)NC1=C(C(=O)CC(C)(C)C1)C2c1ccc([N+](=O)[O-])cc1" ?
[reply] inactive

[ask] Per the assay record, what outcome was assigned to "O=C1/C(=C/c2ccc(OC(=O)c3ccccc3)cc2)CCC/C1=C\c1ccc(OC(=O)c2ccccc2)cc1" ?
[reply] inactive

[ask] Per the assay record, what outcome was assigned to CC1N(C)C(=O)OC12CCN(CCCC(=O)c1ccc(F)cc1)CC2 (stereo unspecified) ?
[reply] inactive

[ask] Per the assay record, what outcome was assigned to "O=c1[nH]c(=O)n(C/C=C/CO)nc1Br" ?
[reply] inactive

[ask] Per the assay record, what outcome was assigned to CCCCCCCCCCCCCCCCOCC(COP(=O)([O-])OCC[N+](C)(C)C)OCCCCCCCCCCCCCCCC (stereo unspecified) ?
[reply] inactive

[ask] Per the assay record, what outcome was assigned to c1ccc(C2(c3ccccc3)SSC3(S2)C2CC4CC(C2)CC3C4)cc1 (stereo unspecified) ?
[reply] inactive

[ask] Per the assay record, what outcome was assigned to C[N+](C)(C)C(Cc1c[nH]c(=S)[nH]1)C(=O)O (stereo unspecified) ?
[reply] inactive

[ask] Per the assay record, what outcome was assigned to "COc1c(Br)cc(/C=C(\C#N)c2ccccn2)cc1Br" ?
[reply] inactive

[ask] Per the assay record, what outcome was assigned to COC(=O)C1C/C(=C/N(C)C)C(=S)N1 (stereo unspecified) ?
[reply] inactive

[ask] Per the assay record, what outcome was assigned to CC1CCCc2c(CC3CC(=O)NC(=O)C3)nc(N)nc21 (stereo unspecified) ?
[reply] inactive

New cases:
[ask] Per the assay record, what outcome was assigned to CNC(=S)NC1CCCCC1NC(=S)NC (stereo unspecified) ?
[reply] inactive

[ask] Per the assay record, what outcome was assigned to C=C1C(=O)OC2/C=C(\C)CC/C=C(/C)CC(OC(=O)/C(=C/CO)CO)C12 (stereo unspecified) ?
[reply] inactive

Numbers sourced from ChEMBL document CHEMBL1201862.
